# Experimental target: T1, FcRL2, overexpressed on 3T3 cells (UniProt Q96LA5 20-508, limits assumed)
# T1 construct: whole, on cells
# T1 sequence (looked up): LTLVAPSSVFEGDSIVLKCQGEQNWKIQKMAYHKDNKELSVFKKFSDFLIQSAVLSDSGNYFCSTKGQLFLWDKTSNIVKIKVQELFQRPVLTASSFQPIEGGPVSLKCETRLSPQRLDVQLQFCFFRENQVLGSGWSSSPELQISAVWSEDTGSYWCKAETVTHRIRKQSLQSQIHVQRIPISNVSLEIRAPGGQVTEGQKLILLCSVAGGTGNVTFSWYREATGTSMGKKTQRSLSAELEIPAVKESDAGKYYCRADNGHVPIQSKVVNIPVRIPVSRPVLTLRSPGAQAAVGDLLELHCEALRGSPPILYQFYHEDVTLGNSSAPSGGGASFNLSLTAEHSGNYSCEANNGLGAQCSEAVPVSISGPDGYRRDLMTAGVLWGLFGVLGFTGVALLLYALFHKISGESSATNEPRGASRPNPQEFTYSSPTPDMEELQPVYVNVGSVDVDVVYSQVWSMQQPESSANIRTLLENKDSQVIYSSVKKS
# Assay explanation: phage clone on 3T3-FcRL2 cells
Parameter measured: binding result

INSERT INTO assay_data (binder, measurement) VALUES
  ('ET200-013 (scFv, screened as phage clone; entry is VL-linker-VH-His tag-HA tag) scFv: QSVVTQPPSVSGAPGQRVTISCTGSTSNIGAGYDVHWYQQLPGTAPKLLIYTNNFRPSGVPDRFSASKSGTSASLAITGLQAEDEADYYCGTWDSSLSAVVFGGGTKLTVLGSRGGGGSGGGGSGGGGSLEMAEVQLVESGTEVKKPGASVKVSCKASGYMFTSYGLNWVRQAPGQGLEWMGWISANNGKTNYAKKFQDRVTMTRDTSTSTGYMELRSLRSDDTAVYYCARHIGGSYFDRWGQGTLVTVSSTSGQAGQHHHHHHGAYPYDVPDYAS', 'no binding'),
  ('ET200-079 (scFv, screened as phage clone; entry is VL-linker-VH-His tag-HA tag) scFv: SYELTQPPSASGTPGQRVTISCSGSSSNIGSNYVYWYQQLPGTAPKLFIYRNNQRPSGVPDRFSGSKSGTSASLAISGLRSEDEADYYCAAWDDSLSGYLFGTGTKVTVLGSRGGGGSGGGGSGGGGSLEMAEVQLVESGGGLVQPGRSLRLSCAASGFTFDDYAMHWVRQAPGKGLEWVSGISWNSGSIGYADSVKGRFTISRDNAKNSLYLQMNSLRAEDTALYYCANGDSNYYYGMDVWGQGTTVTVSSTSGQAGQHHHHHHGAYPYDVPDYAS', 'no binding');
